- EXPERIMENTAL_TARGET: Cytochrome P450 2D6 (Homo sapiens, UniProt P10635)
- Sequence (P10635 whole entry): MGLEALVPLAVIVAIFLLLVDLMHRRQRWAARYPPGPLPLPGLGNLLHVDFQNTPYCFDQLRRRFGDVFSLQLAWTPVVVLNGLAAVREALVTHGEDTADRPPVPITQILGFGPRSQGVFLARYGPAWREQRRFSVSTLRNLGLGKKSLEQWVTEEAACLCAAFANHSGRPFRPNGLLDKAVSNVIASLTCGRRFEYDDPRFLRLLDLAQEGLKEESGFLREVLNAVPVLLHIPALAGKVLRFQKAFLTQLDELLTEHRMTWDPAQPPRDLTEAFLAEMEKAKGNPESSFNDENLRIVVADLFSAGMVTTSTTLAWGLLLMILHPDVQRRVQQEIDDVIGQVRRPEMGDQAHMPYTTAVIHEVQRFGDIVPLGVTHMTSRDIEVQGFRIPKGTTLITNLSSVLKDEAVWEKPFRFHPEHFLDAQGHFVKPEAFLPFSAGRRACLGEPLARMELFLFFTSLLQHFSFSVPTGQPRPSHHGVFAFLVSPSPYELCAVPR
REPORTED_METRIC: IC50

                                   compound  reported_value
0  Cc1cn(C2=CCC3C4CC=C5C[C@@H](NC(=O)c6ccc(F)cc6)CC[C@]5(C)C4CC[C@]23C)cn1 (stereo partly specified)           50 µM

====

- EXPERIMENTAL_TARGET: Cytochrome P450 1A2 (Homo sapiens)
- Sequence (P05177 whole entry): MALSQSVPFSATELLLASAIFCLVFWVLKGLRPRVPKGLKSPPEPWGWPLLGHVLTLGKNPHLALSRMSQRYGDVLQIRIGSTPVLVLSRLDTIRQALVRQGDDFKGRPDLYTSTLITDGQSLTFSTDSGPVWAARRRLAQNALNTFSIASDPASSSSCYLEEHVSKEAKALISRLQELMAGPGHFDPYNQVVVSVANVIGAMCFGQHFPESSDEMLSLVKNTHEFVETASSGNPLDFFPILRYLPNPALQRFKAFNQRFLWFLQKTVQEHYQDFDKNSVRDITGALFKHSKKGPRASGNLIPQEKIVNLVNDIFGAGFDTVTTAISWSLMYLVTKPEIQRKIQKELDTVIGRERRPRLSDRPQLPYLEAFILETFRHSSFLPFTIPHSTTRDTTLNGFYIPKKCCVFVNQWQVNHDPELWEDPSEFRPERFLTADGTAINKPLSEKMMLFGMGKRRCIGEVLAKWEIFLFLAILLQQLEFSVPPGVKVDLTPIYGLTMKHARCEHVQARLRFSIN
pIC50: −log10 of the molar value.
REPORTED_METRIC: pIC50

>>> print(df.to_string())
                                   compound  reported_value
0  Cc1cn(C2=CCC3C4CC=C5C[C@@H](NC(=O)c6ccc(F)cc6)CC[C@]5(C)C4CC[C@]23C)cn1 (stereo partly specified)            4.60

====

- PROTOCOL: Oral bioavailability in Sprague-Dawley rat at 10 mg/kg measured upto 24 hrs by LC-MS/MS analysis
- Assay type: ADME, organism-based
- RUN_CONDITIONS: in vivo
REPORTED_METRIC: bioavailability (%)

>>> df
                                   molecule  reported_value
0  Cc1cn(C2=CCC3C4CC=C5C[C@@H](NC(=O)c6ccc(F)cc6)CC[C@]5(C)C4CC[C@]23C)cn1.Cl (stereo partly specified)              93

====

- EXPERIMENTAL_TARGET: GABA-A receptor; anion channel
- PROTOCOL: Antagonist activity at GABA-A (unknown origin)
REPORTED_METRIC: IC50 (µM)

>>> df
                                   molecule  reported_metric  reported_value
0  CNC(=O)c1ccc(N2C(=S)N(c3ccc(C#N)c(C(F)(F)F)c3)C(=O)C2(C)C)cc1F [ENZALUTAMIDE]             IC50             4.8

====

- PROTOCOL: Volume of distribution at steady state in dog at 2 mg/kg, iv measured upto 24 hrs by LC-MS/MS analysis
- Format: ADME, organism-based, Canis lupus familiaris
- RUN_CONDITIONS: in vivo, read-out: Vdss
REPORTED_METRIC: Vd (L/kg)

>>> print(df.to_string())
                                   compound  reported_value
0  Cc1cn(C2=CCC3C4CC=C5C[C@@H](NC(=O)c6ccc(F)cc6)CC[C@]5(C)C4CC[C@]23C)cn1.Cl (stereo partly specified)            1.92
